tested on: Plasma; assay: Haemostatic activity in human plasma assessed as change in rate of prothrombin time at 5 uM after 3 mins by thromboplastic agent based assay relative to control; type: functional
MEASURE: Activity (%)

STRUCTURE_STRING	ASSAYED_SYSTEM	MEASURE	OBSERVED
O=C(CCc1ccccc1)Nc1nccs1	Plasma	Activity	-2.44
CC(=O)Oc1ccc(/C=C/C(=O)Nc2nccs2)cc1	Plasma	Activity	-4.4
CC(=O)Oc1ccccc1/C=C/C(=O)Nc1nccs1	Plasma	Activity	-3.25
COc1ccc(/C=C/C(=O)Nc2nccs2)cc1	Plasma	Activity	-2.27
COc1cc(/C=C/C(=O)Nc2nccs2)cc(OC)c1OC	Plasma	Activity	-0.95
CC(=O)Oc1ccc(/C=C/C(=O)Nc2nccs2)cc1OC(C)=O	Plasma	Activity	-4.09
COc1cc(/C=C/C(=O)Nc2nccs2)ccc1OC(C)=O	Plasma	Activity	-2.24
